# Tested on: Daudi (human B-cell lymphoma) xenograft bearing CB-17 SCID mice
# Protocol summary: Biodistribution in Daudi xenograft bearing mice
# Assay type: in vivo, mouse
# Condition description: 1h p.i., tracer only, i.v.; γ-counter; means ± SD, n=4-5 (68Ga: n=4)
Where a SMILES comes first, the peptide text is derived from it. Side-chain parts run from the residue outwards. [ ]: non-standard residue; d: D form. The star is where a group is joined. DOTA = O=C(O)CN1CCN(CC(=O)O)CCN(CC(=O)*)CCN(CC(=O)O)CC1; dTyr(3-I) = N[C@H](Cc1ccc(O)c(I)c1)C(=O)O; 2Nal = N[C@@H](Cc1ccc2ccccc2c1)C(=O)O; dNMeOrn = CN[C@H](CCCN)C(=O)O; 4Amb = NCc1ccc(C(=O)O)cc1; 4Abz = Nc1ccc(C(=O)O)cc1
Examples of compounds with documented Biodistribution adrenals follow.

Compound	Biodistribution adrenals / %iD/g
CN1C(=O)[C@@H](Cc2ccc(O)c(I)c2)NC(=O)CNC(=O)[C@H](Cc2ccc3ccccc3c2)NC(=O)[C@H](CCCNC(=N)N)NC(=O)[C@H]1CCCNC(=O)c1ccc(CNC(=O)CN2CCN(CC(=O)O)CCN(CC(=O)O)CCN(CC(=O)O)CC2)cc1 [[^177Lu]PentixaTher, metal not drawn, reference compound] (cyclo([dTyr(3-I)][dNMeOrn]([4Amb-DOTA])R[2Nal]G))	1.5
C[C@@H](NC(=O)[C@@H](CCCNC(=N)N)NC(=O)CN1CCN(CC(=O)O)CCN(CC(=O)O)CCN(CC(=O)O)CC1)C(=O)Nc1ccc(C(=O)NCCC[C@@H]2C(=O)N[C@@H](CCCNC(=N)N)C(=O)N[C@@H](Cc3ccc4ccccc4c3)C(=O)NCC(=O)N[C@H](Cc3ccc(O)c(I)c3)C(=O)N2C)cc1 [[^68Ga]DOTA-r-a-ABA-iodoCPCR4] [metal not drawn] (cyclo([2Nal]G[dTyr(3-I)][dNMeOrn]([4Abz-dA-dR-DOTA])R))	1.51
C[C@@H](NC(=O)[C@@H](CCCNC(=N)N)NC(=O)CN1CCN(CC(=O)O)CCN(CC(=O)O)CCN(CC(=O)O)CC1)C(=O)Nc1ccc(C(=O)NCCC[C@@H]2C(=O)N[C@@H](CCCNC(=N)N)C(=O)N[C@@H](Cc3ccc4ccccc4c3)C(=O)NCC(=O)N[C@H](Cc3ccc(O)c(I)c3)C(=O)N2C)cc1 [[^177Lu]DOTA-r-a-ABA-iodoCPCR4] [metal not drawn] (cyclo([2Nal]G[dTyr(3-I)][dNMeOrn]([4Abz-dA-dR-DOTA])R))	4.54
C[C@@H](NC(=O)[C@@H](CCCNC(=N)N)NC(=O)CN1CCN(CC(=O)O)CCN(CC(=O)O)CCN(CC(=O)O)CC1)C(=O)Nc1ccc(C(=O)NCCC[C@@H]2C(=O)N[C@@H](CCCNC(=N)N)C(=O)N[C@@H](Cc3ccc4ccccc4c3)C(=O)NCC(=O)N[C@H](Cc3ccc(O)cc3)C(=O)N2C)cc1 [[^177Lu]DOTA-r-a-ABA-CPCR4] [metal not drawn] (cyclo([2Nal]G[dY][dNMeOrn]([4Abz-dA-dR-DOTA])R))	1.16
